Target: human MT1 receptor (Homo sapiens)
Sequence (P48039 whole entry): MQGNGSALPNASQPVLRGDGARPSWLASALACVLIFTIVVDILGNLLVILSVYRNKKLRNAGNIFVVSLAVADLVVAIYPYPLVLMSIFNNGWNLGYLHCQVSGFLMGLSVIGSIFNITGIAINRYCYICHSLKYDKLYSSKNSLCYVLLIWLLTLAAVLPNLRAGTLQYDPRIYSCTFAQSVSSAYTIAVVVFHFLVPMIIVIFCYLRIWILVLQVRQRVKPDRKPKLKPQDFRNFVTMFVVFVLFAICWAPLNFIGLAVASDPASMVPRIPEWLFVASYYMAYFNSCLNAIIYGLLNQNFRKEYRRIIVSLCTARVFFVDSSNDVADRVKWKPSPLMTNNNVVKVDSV
Experiment: Activation of human MT1 receptor in receptor-expressing HEK293 cells (intracellular Ca2+, FLIPR)
Settings: HEK293 cells stably expressing human MT1 and Gq/i chimeric G-protein; intracellular Ca2+ by FLIPR
Measurement Kind: EC50 (nM)
Give bare numbers, in nM.

Could I get EC50 for every one of these entries?
1. CNC(=O)c1[nH]c2ccc(OC)cc2c1CCNC(C)=O
2. CNC(=O)c1[nH]c2ccc(OC)nc2c1CCNC(=O)C(F)F
3. CCCC(=O)NCCc1c(C(=O)NC)[nH]c2cc(Cl)c(OC)cc12

Reply:
1. 12
2. 12
3. 32
